Target Or System: human soluble CD4 (sCD4) (human, UniProt P01730)
Give measured Kd for each item. Keep answers brief.
One number for each entry, in nM.

Binder	Kd [nM]
M24 (CDR-H1 EQTLH) (antibody, V domains shown) VH: QVQLQQSGPEVVKPGASVKMSCKASGYTFTEQTLHWVRQKPGQGLDWIGYINPYNDGTDYDEKFKGKATLTSDTSTSTAYMELSSLRSEDTAVYYCAREKDNYATGAWFAYWGQGTLVTVSS VL: DIVMTQSPDSLAVSLGERVTMNCKSSQSLLYSTNQKNYLAWYQQKPGQSPKLLIYWASTRESGVPDRFSGSGSGTDFTLTISSVQAEDVAVYYCQQYYSYRTFGGGTKLEIK	0.0097

Lab note: each binder below needs its Kd filled in.
1. AQTLH (clone 30) (antibody, V domains shown) VH: QVQLQQSGPEVVKPGASVKMSCKASGYTFTAQTLHWVRQKPGQGLDWIGYINPYNDGTDYDEKFKGKATLTSDTSTSTAYMELSSLRSEDTAVYYCAREKDNYATGAWFAYWGQGTLVTVSS VL: DIVMTQSPDSLAVSLGERVTMNCKSSQSLLYSTNQKNYLAWYQQKPGQSPKLLIYWASTRESGVPDRFSGSGSGTDFTLTISSVQAEDVAVYYCQQYYSYRTFGGGTKLEIK
2. ML29 (antibody, V domains shown) VH: QVQLQQSGPEVVKPGASVKMSCKASGYTFTSYVIHWVRQKPGQGLDWIGYINPYNDGTDYDEKFKGKATLTSDTSTSTAYMELSSLRSEDTAVYYCAREKDSLTTGAWFAYWGQGTLVTVSS VL: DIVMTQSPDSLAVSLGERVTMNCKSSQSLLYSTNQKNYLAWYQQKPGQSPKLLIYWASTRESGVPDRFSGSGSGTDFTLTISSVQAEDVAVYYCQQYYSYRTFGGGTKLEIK

Reply |
1. 0.0107
2. 2.23

# credit: patent US8637024
